Assay summary: Toxicity in po dosed BALB/c mouse
Type: organism-based
Test parameters: in vivo
Measured endpoint: LD50 (mg/kg)
Numbers only; they are read as mg/kg.

# LD50 (compound: COC(=O)/C=C/C(=O)c1ccc(OC)cc1 ) is 568

* * *

Test system: Mycobacterium tuberculosis
Assay summary: Antimycobacterial activity against Mycobacterium tuberculosis H37Rv ATCC 27294 after 4 days by microplate Alamar blue assay
Type: functional
Test parameters: H37Rv ATCC 27294, 96 h
Measured endpoint: MIC (µg/mL)
Numbers only; they are read as µg/mL.

Example cases with answers are listed next.
>>> numeric_value("CCOC(=O)/C=C/C(=O)c1ccc(OC)c(OC)c1")
0.82
>>> numeric_value("CCCN(CCC)C(=O)/C=C/C(=O)c1ccc(OC)cc1")
1.89
>>> numeric_value("CCN(C)C(=O)/C=C/C(=O)c1ccccc1[N+](=O)[O-]")
0.24
>>> numeric_value("CC(C)OC(=O)/C=C/C(=O)c1ccc(OCc2ccccc2)cc1")
1.14
>>> numeric_value("CC(=O)/C=C/C(=O)OC(C)C")
2.5

Please examine the following record next.
# MIC (compound: COC(=O)/C=C/C(=O)c1ccc(-c2ccccc2)cc1 ) is 0.2
